# method-summary: Enhancement of bioavailability of drugs given to rats with bioenhancers (plasma drug level by HPLC)
# condition: nutraceutical with Carum carvi Fraction No. 1 15 mg/kg
Please respond with reported % Enhancement in bioavailability, Carum carvi (Cc) Frac 1. for every item in the list.
Value expressed in %; do not type the unit.

Lookup: Query: % Enhancement in bioavailability, Carum carvi (Cc) Frac 1.; subject: Cc1ncc(C[n+]2csc(CCO)c2C)c(N)n1 [Vit B 1]
Found: 42

Lookup: Query: % Enhancement in bioavailability, Carum carvi (Cc) Frac 1.; subject: CC1=C(/C=C/C(C)=C/C=C/C(C)=C/C=C/C=C(C)/C=C/C=C(C)/C=C/C2=C(C)CCCC2(C)C)C(C)(C)CCC1 [B-carotene]
Found: 55

Lookup: Query: % Enhancement in bioavailability, Carum carvi (Cc) Frac 1.; subject: CSCC[C@H](N)C(=O)O [Methionine]
Found: 28
